System: K562
Assay Notes: NCI tumour cell line growth inhibition, 48 h
The source made the active and inactive calls. No stated cut-off is given here; in the data, active = GI50 up to about 1.1 µM and inactive = higher.
Possible outcomes: 1 (yes) (active), 0 (no) (inactive)

# Compound, Discrete Label
data = [
    ("CC(C)(C)OC(=O)C1C(=O)NC(=O)CC1C(COCc1ccccc1)OCc1ccccc1 (stereo unspecified)", "0 (no)"),
    ("CSC1=N/C(=C\\c2ccc(Cl)cc2)C(=O)N1CN1CCCCC1", "0 (no)"),
    ("CCCCNC1CCCCC[C@H]1O (stereo partly specified)", "0 (no)"),
    ("OCCSCc1ccccc1", "0 (no)"),
    ("Cc1ccsc1/C=N/Nc1cnccn1", "0 (no)"),
    ("CN(C)c1ccc(/C=C2\\N=C(c3ccc([N+](=O)[O-])cc3)OC2=O)cc1", "0 (no)"),
    ("Nc1cc2ncnc(Nc3cccc(Br)c3)c2cn1", "0 (no)"),
    ("CN(C)CCNC(=O)c1cccc2c(NCCN(C)C)c3ccccc3nc12", "0 (no)"),
    ("Clc1ccccc1-c1nc2cc(C34CC5CC(CC(C5)C3)C4)ccc2[nH]1", "0 (no)"),
    ("Cc1cccc(C(C)(C)C)c1NC(=O)CC1C(=O)Nc2ccccc2S1(=O)=O (stereo unspecified)", "0 (no)"),
    ("COc1ccc(NC2Oc3cc4c(cc3C(c3cc(OC)c(OC)c(OC)c3)C2C)OCO4)cc1 (stereo unspecified)", "1 (yes)"),
]

----------
Test system: SF-295
Assay Notes: NCI tumour cell line growth inhibition, 48 h
Active and inactive are the calls of the source. Cut-off read from the data, not from the text of the source: active = GI50 up to about 1.1 µM and inactive = higher.

# Compound, GI50
measured = [
    ("COC(=O)c1sc2c(c1C(=O)OC)/C(=N/C(C)(C)C)S/C2=N\\C(C)(C)C", "19.2 µM (inactive)"),
    ("CN(C)C(=S)/N=c1\\sn(C)/c(=N\\C(=S)N(C)C)n1C", "> 100 µM (inactive)"),
    ("COC(=O)CN(CC1O[C@@H]2OC(C)(C)O[C@@H]2C1NC(C)=O)C(=O)OCc1ccccc1 (some centres undefined)", "> 100 µM (inactive)"),
    ("COC(=O)C(c1n[nH]c2ccccc12)C(C(=O)OC)c1n[nH]c2ccccc12 (centres undefined)", "> 100 µM (inactive)"),
    ("COc1ccc(/C(=N/O)c2ccccc2-c2nc3ccccc3c(=O)n2-c2ccc(S(=O)(=O)Nc3ncccn3)cc2)cc1C", "12.9 µM (inactive)"),
    ("CCNc1cc2c3c(c1)CCN3CCC2", "> 10 µM (inactive)"),
    ("O=C(O)CCCNS(=O)(=O)c1ccc2ccccc2c1", "> 100 µM (inactive)"),
    ("COC(=O)/C=C(\\CC(=O)OC)n1nnnc1[C@@H]1C[C@H](COC(c2ccccc2)(c2ccccc2)c2ccccc2)[C@H]2OC(C)(C)O[C@H]21", "> 100 µM (inactive)"),
    ("COc1ccc(C2C(Cl)C(=O)N2NC(=O)c2ccc(NC(C)=O)cc2)cc1 (centres undefined)", "> 100 µM (inactive)"),
]

----------
Reported GI50 values for the following compounds.
System: Malme-3M
Assay Notes: NCI tumour cell line growth inhibition, 48 h
Calls of active or inactive are those of the source. Cut-off read from the data, not from the text of the source: active = GI50 up to about 1.1 µM and inactive = higher.
Measurement Name: GI50

# Record Smiles, Experimental System, Result
rows = [
    ("O=C(c1cccc(C(=O)c2ccc3c4c(cccc24)C(=O)N(c2ccccc2)C3=O)c1)c1ccc2c3c(cccc13)C(=O)N(c1ccccc1)C2=O", "Malme-3M", "> 100 µM (inactive)"),
    ("C=CCN1C(=O)/C(=C/c2ccc(OC)cc2)N=C1SC/C=C/C", "Malme-3M", "34.8 µM (inactive)"),
    ("CC1=C(C(=S)Nc2ccc(Cl)c(C(=O)OC(C)C)c2)SCCO1", "Malme-3M", "20.3 µM (inactive)"),
    ("OCCSCc1ccccc1", "Malme-3M", "> 100 µM (inactive)"),
    ("Fc1ccc(C(OCCN2CCN(CCCCl)CC2)c2ccc(F)cc2)cc1", "Malme-3M", "17 µM (inactive)"),
]
